As a worked illustration, we turn to pIC50 data collected for Epidermal growth factor receptor (Homo sapiens).
pIC50 here is simply -log10 of the concentration when that concentration is written in mol/L.

Output reported pIC50 of the compound CC(C)(C)c1ccc(OC[C@@H](Cn2ccnc2[N+](=O)[O-])OC(=O)c2ccc(NC=C3C(=O)C=CC3=O)cc2)cc1 on Epidermal growth factor receptor (Homo sapiens).
Sequence (P00533 whole entry): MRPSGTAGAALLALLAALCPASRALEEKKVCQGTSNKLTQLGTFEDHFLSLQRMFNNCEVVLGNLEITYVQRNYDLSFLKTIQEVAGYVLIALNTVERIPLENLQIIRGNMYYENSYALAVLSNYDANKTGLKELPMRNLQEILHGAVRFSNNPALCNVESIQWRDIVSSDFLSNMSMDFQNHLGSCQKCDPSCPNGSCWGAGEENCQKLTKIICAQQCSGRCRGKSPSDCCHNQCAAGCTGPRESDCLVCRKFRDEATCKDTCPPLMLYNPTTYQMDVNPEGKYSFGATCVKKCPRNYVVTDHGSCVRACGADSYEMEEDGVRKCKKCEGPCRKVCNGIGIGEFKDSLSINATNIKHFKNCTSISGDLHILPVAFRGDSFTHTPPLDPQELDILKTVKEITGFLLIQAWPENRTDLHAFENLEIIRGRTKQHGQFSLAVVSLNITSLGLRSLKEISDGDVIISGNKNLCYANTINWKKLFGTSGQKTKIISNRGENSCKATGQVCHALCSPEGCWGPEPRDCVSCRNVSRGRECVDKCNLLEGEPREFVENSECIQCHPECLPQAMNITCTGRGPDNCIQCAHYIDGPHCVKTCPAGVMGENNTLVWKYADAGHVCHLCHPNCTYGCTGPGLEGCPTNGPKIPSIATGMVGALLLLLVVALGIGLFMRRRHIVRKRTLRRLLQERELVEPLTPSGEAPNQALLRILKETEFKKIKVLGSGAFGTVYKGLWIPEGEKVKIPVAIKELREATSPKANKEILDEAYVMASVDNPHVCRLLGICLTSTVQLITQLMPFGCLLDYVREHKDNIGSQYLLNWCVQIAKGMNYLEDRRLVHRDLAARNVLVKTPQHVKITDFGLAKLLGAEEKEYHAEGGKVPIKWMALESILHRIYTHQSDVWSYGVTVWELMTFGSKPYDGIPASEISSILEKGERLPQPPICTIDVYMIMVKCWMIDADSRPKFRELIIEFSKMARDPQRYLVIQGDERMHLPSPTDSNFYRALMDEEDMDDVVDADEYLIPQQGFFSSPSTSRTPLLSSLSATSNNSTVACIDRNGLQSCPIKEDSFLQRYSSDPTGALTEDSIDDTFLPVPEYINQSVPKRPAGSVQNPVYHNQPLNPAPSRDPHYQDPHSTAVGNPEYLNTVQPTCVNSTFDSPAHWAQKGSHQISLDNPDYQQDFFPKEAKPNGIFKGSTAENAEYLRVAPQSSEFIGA
5.74

Output reported pIC50 of the compound COC[C@H](Cn1ccnc1[N+](=O)[O-])OC(=O)c1ccc(NC=C2C(=O)C=CC2=O)cc1 on Epidermal growth factor receptor (Homo sapiens).
4.64

Output reported pIC50 of the compound CC(C)(C)c1ccc(OC[C@H](Cn2ccnc2[N+](=O)[O-])OC(=O)c2ccc(NC=C3C(=O)C=CC3=O)cc2)cc1 on Epidermal growth factor receptor (Homo sapiens).
4.74
